Provide the reported IC50 of each item.
system-tested: VIM-2 (Pseudomonas aeruginosa)
procedure-text: VIM-2 enzyme-inhibition assay with nitrocefin as substrate (UV-Vis, 482 nm)
Reply with just the number (in µM).

For the compound shown here, O=C(CSc1nnc(-c2ccccc2C(=O)O)[nH]1)Nc1ccccc1[N+](=O)[O-] , give the reported IC50. 45.2

Which IC50 value is on record for O=C(CSc1nnc(-c2ccccc2C(=O)O)[nH]1)Nc1ccccc1Cl ? 31.4

Consider the compound O=C(CSc1nnc(-c2ccccc2C(=O)O)[nH]1)NCc1ccccc1 and give its measured IC50. 45.8

Bench note: what IC50 did O=C(CSc1nnc(-c2ccccc2C(=O)O)[nH]1)Nc1ccc(Cl)cc1 show? 52.2

Which IC50 is reported for this compound? O=C(CSc1nnc(-c2ccccc2C(=O)O)[nH]1)Nc1ccc([N+](=O)[O-])cc1 38.2

For the compound shown here, O=C(CSc1nnc(-c2ccccc2C(=O)O)[nH]1)Nc1ccccc1 , give the reported IC50. 40.8

---

system-tested: VIM-2 (Pseudomonas aeruginosa, UniProt Q9K2N0)
procedure-text: Binding affinity to VIM-2 by isothermal titration calorimetry (ITC)
endpoint-name: Kd (µM)
Please respond with the number in µM and leave the unit unwritten.

I have this compound here, O=C(CSc1nnc(-c2ccccc2C(=O)O)[nH]1)Nc1nc2ccccc2[nH]1 [Compound 1b] , and I need its recorded Kd. 8.62

Could you share which Kd value was measured for O=C(CSc1nnc(-c2ccccc2C(=O)O)[nH]1)Nc1cccc(Cl)c1 [Compound 1h] ? 6.41

For O=C(CSc1nnc(-c2ccccc2C(=O)O)[nH]1)Nc1nc2ccccc2s1 [Compound 1c] , what is its reported Kd? 7.94

---

System: E. coli DH10B-VIM-2
procedure-text: MIC by broth micro-dilution, cefazolin alone or with inhibitors, E. coli producing VIM-2
Assay type: cell-based
condition-label: inhibitor 128 μg/mL
Field: Decrease in MIC of cefazolin. Provide a value for each of the compounds that follow.
Quick note: give the figure in fold, leave out the unit.

Look up Decrease in MIC of cefazolin: O=C(CSc1nnc(-c2ccccc2C(=O)O)[nH]1)Nc1cccc(Cl)c1 32

What does the record list as Decrease in MIC of cefazolin for O=C(CSc1nnc(-c2ccccc2C(=O)O)[nH]1)Nc1ccccc1Cl ? 32

If you can, please state the reported Decrease in MIC of cefazolin value of O=C(CSc1nnc(-c2ccccc2C(=O)O)[nH]1)Nc1nc2ccccc2[nH]1 . 16

Can you look up the measured Decrease in MIC of cefazolin of O=C(CSc1nnc(-c2ccccc2C(=O)O)[nH]1)Nc1nc2ccccc2s1 for me? 16
